Test system: CCRF-CEM leukemia
Assay: NCI tumour cell line growth inhibition, 48 h
Property Name: TGI

Worked examples follow.
O=C1C=CC=C[C@@H]2C(C3OCCO3)CC[C@H]12.[C-]#[O+].[C-]#[O+].[C-]#[O+].[Fe] (stereo not given in full)	> 89.8 µM
CC(C)NC(=O)OCc1c(COC(=O)NC(C)C)c(-c2ccc[n+](COC(=O)C(C)C)c2)n2c1CCC2	> 91.2 µM
COc1cccc(CC2C(=O)N=C(NC(C)=O)N2C)c1OC(C)=O (stereo not given)	> 100 µM
COC(=O)c1cc(C)n(CN(Cn2nc(C(=O)OC)cc2C)c2ccccc2)n1	54.2 µM
Cn1ccnc1Sc1ccc(/C=N\NC(=O)c2cccc(F)c2)cc1[N+](=O)[O-]	> 100 µM

Looking for the measured TGI of Cc1cc(C)nc(Sc2c([N+](=O)[O-])ncn2C)n1 , can you help?
> 100 µM

Looking for the measured TGI of CC(=O)OCC1OC(n2c3c(cc(C#N)c2=O)CCCCCC3)C(OC(C)=O)C(OC(C)=O)C1OC(C)=O (stereo not given) , can you help?
> 100 µM
